IC50 values for the compounds below.
# assayed_system: Vps34 (Homo sapiens, UniProt Q8NEB9)
# Sequence (Q8NEB9 whole entry, species assumed): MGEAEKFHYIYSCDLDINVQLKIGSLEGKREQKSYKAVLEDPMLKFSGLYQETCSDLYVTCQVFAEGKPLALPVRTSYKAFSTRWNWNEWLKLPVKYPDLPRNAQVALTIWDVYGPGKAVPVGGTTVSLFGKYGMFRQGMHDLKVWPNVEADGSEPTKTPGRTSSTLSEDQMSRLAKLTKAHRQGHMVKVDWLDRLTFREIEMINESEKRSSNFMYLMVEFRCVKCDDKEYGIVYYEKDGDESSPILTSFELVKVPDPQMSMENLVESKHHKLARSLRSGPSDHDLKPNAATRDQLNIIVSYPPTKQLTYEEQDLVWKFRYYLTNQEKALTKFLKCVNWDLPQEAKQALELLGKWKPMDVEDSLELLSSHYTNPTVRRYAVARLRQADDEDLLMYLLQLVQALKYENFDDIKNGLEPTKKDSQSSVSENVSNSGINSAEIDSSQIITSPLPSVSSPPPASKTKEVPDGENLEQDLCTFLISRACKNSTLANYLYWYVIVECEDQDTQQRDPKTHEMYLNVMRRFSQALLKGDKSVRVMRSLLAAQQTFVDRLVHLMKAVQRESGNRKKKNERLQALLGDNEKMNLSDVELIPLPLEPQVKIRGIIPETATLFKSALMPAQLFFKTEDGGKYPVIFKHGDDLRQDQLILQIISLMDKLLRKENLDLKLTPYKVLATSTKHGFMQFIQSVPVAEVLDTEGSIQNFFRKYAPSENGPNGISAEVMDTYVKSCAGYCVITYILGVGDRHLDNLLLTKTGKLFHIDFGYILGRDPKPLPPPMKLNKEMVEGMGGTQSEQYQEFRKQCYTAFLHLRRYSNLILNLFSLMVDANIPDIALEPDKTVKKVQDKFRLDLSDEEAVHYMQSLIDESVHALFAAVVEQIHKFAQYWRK
# experimental_protocol: Kinase Glo Luminescent Kinase Assay (Kglo), assay C
# Assay type: biochemical
# test_parameters: read-out: Assay C VPS34 IC50
Structures can show the parent of a compound that is named as a salt.

Below, 5 compounds whose answers are already recorded.
- compound: "Cc1cc(-c2nc(-c3cc(S(=O)(=O)NC[C@@H](C)O)ccc3C)cnc2N)ccn1 [Example 129, trifluoroacetic acid salt]"
  reported_measurement: "> 9.1 µM"
- compound: "Cc1ccc(S(=O)(=O)N2CCCC(F)(F)C2)cc1-c1cnc(N)c(-n2cncn2)n1 [Example 127.1]"
  reported_measurement: "> 10 µM"
- compound: "Cc1ccc(S(=O)(=O)NCC(C)(C)CO)cc1-c1cnc(N)c(-c2cc(C3CC3)no2)n1 [Example 99]"
  reported_measurement: "2.95 µM"
- compound: "Cc1cc(-c2nc(-c3cc(S(=O)(=O)NC[C@@H]4CCNC4)ccc3C)cnc2N)ccn1 [Example 129.35]"
  reported_measurement: "> 9.1 µM"
- compound: "Cc1ccc(S(=O)(=O)NCC2(O)CCCCC2)cc1-c1cnc(N)c(-n2cncn2)n1 [Example 127.11]"
  reported_measurement: "> 10 µM"

stdin: Hi! What's the reported IC50 for Cc1cc(-c2nc(-c3cc(S(=O)(=O)N[C@H]4CC[C@H](O)CC4)ccc3C)cnc2N)ccn1 [Example 135] on Vps34 (Homo sapiens, UniProt Q8NEB9)?
stdout: > 9.55 µM

stdin: Hi! What's the reported IC50 for Cc1ncc(-c2nc(-c3cc(S(=O)(=O)NC[C@H]4C[C@@H](O)C4)ccc3C)cnc2N)s1 [Example 20a] on Vps34 (Homo sapiens, UniProt Q8NEB9)?
stdout: > 9.1 µM

* * *

# assayed_system: mTOR (Homo sapiens)
# experimental_protocol: Lanthascreen kinase binding assay, assay G
# test_parameters: read-out: Assay G mTOR IC50
pIC50 values for the compounds below.
FYI, pIC50 means -log10 of a concentration in mol per litre.

- sample_smiles: "Cc1ccc(S(=O)(=O)NCC(C)(C)O)cc1-c1cnc(N)c(-c2cnc(C3CC3)s2)n1"
  assayed_system: "mTOR (Homo sapiens)"
  pIC50: 6.16

From here, focus on the item given below.
stdin: Hi! What's the reported pIC50 for `Cc1ncc(-c2nc(-c3cc(S(=O)(=O)NCCC(C)(C)O)ccc3C)cnc2N)s1` on mTOR (Homo sapiens)?
stdout: 6.23

* * *

pIC50 values for the compounds below.
# assayed_system: PI 3-kinase delta (Homo sapiens, UniProt O00329)
# Sequence (O00329 whole entry): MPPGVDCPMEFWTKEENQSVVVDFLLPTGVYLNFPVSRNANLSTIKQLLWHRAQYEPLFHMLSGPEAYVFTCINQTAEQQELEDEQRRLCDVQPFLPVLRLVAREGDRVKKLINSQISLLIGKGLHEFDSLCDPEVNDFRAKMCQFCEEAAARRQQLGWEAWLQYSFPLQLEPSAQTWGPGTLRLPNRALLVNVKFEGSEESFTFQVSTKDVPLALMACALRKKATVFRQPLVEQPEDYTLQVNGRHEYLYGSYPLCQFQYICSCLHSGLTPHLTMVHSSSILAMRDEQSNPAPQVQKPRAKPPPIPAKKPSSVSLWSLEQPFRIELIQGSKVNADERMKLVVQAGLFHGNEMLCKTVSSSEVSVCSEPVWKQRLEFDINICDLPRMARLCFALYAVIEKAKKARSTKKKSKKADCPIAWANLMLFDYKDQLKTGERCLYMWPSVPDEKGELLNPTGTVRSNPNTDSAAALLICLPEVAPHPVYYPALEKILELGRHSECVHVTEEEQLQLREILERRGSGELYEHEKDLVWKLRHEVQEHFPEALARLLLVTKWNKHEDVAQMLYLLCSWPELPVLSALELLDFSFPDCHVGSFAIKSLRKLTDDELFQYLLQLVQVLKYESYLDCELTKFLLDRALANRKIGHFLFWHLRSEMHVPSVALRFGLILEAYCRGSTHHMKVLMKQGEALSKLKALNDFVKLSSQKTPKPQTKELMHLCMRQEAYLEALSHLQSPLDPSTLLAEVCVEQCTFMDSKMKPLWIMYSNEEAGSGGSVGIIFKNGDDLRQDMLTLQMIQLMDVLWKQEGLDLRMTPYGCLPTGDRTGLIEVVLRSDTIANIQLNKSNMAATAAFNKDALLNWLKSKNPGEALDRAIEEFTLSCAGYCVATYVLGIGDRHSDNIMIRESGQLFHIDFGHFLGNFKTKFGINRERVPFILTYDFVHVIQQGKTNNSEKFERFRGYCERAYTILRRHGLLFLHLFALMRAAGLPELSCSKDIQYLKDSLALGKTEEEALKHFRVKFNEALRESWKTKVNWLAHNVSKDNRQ
# Sequence (Q63787 whole entry partner): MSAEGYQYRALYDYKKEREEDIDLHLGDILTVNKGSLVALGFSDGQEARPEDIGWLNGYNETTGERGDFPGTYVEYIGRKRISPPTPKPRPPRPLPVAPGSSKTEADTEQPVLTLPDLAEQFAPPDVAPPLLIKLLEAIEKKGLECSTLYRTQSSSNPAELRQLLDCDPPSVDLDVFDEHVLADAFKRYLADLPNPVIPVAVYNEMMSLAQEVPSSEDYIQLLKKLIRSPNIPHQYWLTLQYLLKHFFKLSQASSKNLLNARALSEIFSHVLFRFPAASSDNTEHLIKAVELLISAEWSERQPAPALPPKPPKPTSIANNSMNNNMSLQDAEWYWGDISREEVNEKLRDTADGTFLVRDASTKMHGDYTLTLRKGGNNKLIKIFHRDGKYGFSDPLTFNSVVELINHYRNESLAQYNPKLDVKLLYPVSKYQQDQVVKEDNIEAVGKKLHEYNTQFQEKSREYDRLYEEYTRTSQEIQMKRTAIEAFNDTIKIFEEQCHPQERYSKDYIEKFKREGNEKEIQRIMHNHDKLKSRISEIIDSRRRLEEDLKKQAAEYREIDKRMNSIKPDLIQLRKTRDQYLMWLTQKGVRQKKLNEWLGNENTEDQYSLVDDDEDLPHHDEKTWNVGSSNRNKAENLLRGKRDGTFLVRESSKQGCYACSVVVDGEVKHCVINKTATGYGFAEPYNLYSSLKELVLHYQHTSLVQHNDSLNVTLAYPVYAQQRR
# experimental_protocol: Cellular assay J2, p-AKT (Ser473) in Rat-1 cells, HTRF format
# Assay type: cell-based
# test_parameters: asterisked data: version J2 (HTRF format), read-out: Assay J PI3Kδ IC50
FYI, pIC50 means -log10 of a concentration in mol per litre.

Below, 4 compounds whose answers are already recorded.
- compound: "Cc1ncc(-c2nc(-c3cc(S(=O)(=O)N[C@H]4C[C@H](O)C4)ccc3C)cnc2N)s1 [Example 43b]"
  assayed_system: "PI 3-kinase delta (Homo sapiens, UniProt O00329)"
  reported_measurement: 5.66
- compound: "Cc1ncc(-c2nc(-c3cc(S(=O)(=O)NCC(C)(C)O)ccc3C)cnc2N)o1 [Example 126]"
  assayed_system: "PI 3-kinase delta (Homo sapiens, UniProt O00329)"
  reported_measurement: 5.37
- compound: "Cc1ncc(-c2nc(-c3cc(S(=O)(=O)NCC4(CO)CCOCC4)ccc3C)cnc2N)s1 [Example 45.9]"
  assayed_system: "PI 3-kinase delta (Homo sapiens, UniProt O00329)"
  reported_measurement: 6.55
- compound: "Cc1ncc(-c2nc(-c3cc(S(=O)(=O)N[C@H]4C[C@@H](O)C4)ccc3C)cnc2N)s1 [Example 43a]"
  assayed_system: "PI 3-kinase delta (Homo sapiens, UniProt O00329)"
  reported_measurement: 6.01

stdin: Hi! What's the reported pIC50 for Cc1ncc(-c2nc(-c3cc(S(=O)(=O)NCC4CCCCO4)ccc3C)cnc2N)s1 (centres unmarked) [Example 45.4] on PI 3-kinase delta (Homo sapiens, UniProt O00329)?
stdout: 6.24

Recorded values, source patent US10004732B2.
